Tested on: Nrf2-ARE pathway
Test Details: ARE reporter assay in CHO 4xARE-TK-GFP cells (Spectrum library hits)
Measurement Setup: lowest dose at which a reduction in GFP fluorescence was observed
Where a name gives a salt, the structure may show the parent alone.
Value Type: Toxic dose (µM)
Respond with the bare value in µM.

Completed entries (count: 3):
Molecule	Study System	Uom	Toxic dose
COc1ccc(/C=C/C(=O)c2ccccc2)cc1 [4-Methoxychalcone]	Nrf2-ARE pathway	µM	100
COC(=O)[C@H](O)[C@H]1C(C)(C)[C@H](OC(C)=O)[C@@H]2CC3=C4CC(=O)O[C@@H](c5ccoc5)[C@]4(C)CC[C@@H]3[C@@]1(C)C2=O [Swietenolide 3 acetate]	Nrf2-ARE pathway	µM	100
CCCCCc1c2c(cc(O)c1C(=O)O)OC(=O)c1c(cc(OC)cc1C(=O)CCCC)O2 [Lobaric acid]	Nrf2-ARE pathway	µM	100

Enquiry: State its Toxic dose: CC(=O)OC1CC[C@@]2(C)C(CC[C@H]3[C@@H]4CC=C(C(C)=O)[C@@]4(C)C(=O)C[C@@H]32)C1 (stereo partly shown) [3 Acetoxypregn-16-en-12,20-dione]
Return: 30

Enquiry: Answer with reported Toxic dose of Oc1ccc(O)cc1 [Hydroquinone, reference compound]
Return: 100

Enquiry: Recall and state the measured Toxic dose for C=CC(C1=CC(=O)C(OC)=CC1=O)c1ccccc1 (stereo not shown) [4-Methoxydalbergione] .
Return: 100

Enquiry: Give me measured Toxic dose, please, for this molecule: CC(COc1ccccc1)NC(C)C(O)c1ccc(O)cc1 (stereo not shown) [Isoxsuprine hydrochloride, reference compound]
Return: 100

Enquiry: Quote Toxic dose reported for CC1(C)C(=O)C=C[C@]2(C)[C@H]3CC[C@@]4(C)[C@H](c5ccoc5)OC(=O)[C@H]5O[C@]54[C@]3(C)[C@H](O)C[C@@H]12 [Deacetylgedunin] please.
Return: 30

Enquiry: Read the entry C=C(C)/C=C1/C=CC(=O)C(C)=C1 [Retusoquinone] and write its reported Toxic dose.
Return: 100

Enquiry: Respond only with Toxic dose recorded for CC(C)N(C(=O)CCl)c1ccccc1 [Propachlor]
Return: 100

Enquiry: Return reported Toxic dose. Input molecule: CC1(C)C2CC(=O)O[C@@]3(C)C4=CC(=O)O[C@@H](c5ccoc5)[C@]4(C)CCC3[C@@]2(C)C=C[C@H]1O (stereo partly shown) [Deoxyandirobin lactone]
Return: 100

Enquiry: Name the recorded Toxic dose of the item C=C1C(=O)O[C@H]2[C@H]1CC/C(C)=C/CC[C@@]1(C)O[C@@H]21 [Parthenolide] in your answer.
Return: 100
